Data credit: ChEMBL document CHEMBL3785021

Recorded Ki by entry
# system: Carbonic anhydrase (Candida albicans (strain SC5314 / ATCC MYA-2876) (Yeast), UniProt Q5AJ71)
# Sequence (Q5AJ71 whole entry): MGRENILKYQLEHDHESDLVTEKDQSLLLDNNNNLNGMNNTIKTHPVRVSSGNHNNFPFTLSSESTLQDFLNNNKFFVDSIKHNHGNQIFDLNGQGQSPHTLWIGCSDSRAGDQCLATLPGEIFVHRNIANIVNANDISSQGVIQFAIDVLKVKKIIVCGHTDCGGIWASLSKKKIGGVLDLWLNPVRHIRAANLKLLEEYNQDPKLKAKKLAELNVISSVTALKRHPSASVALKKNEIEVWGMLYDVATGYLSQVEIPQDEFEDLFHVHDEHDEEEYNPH
# assay.overview: Inhibition of recombinant Candida albicans beta carbonic anhydrase NCE103 expressed in Escherichia coli preincubated for 15 mins by stopped-flow CO2 hydration assay

# compound.smiles, Ki (nM)
data = [
    ("CN1C(=O)/C(=N\\c2ccc(S(N)(=O)=O)cc2)c2cc(F)ccc21", 79.3),
    ("NS(=O)(=O)c1cccc(/N=C2\\C(=O)Nc3ccc([N+](=O)[O-])cc32)c1", 35.7),
    ("NS(=O)(=O)c1ccc(/N=C2\\C(=O)Nc3ccc([N+](=O)[O-])cc32)cc1", 34.1),
    ("NS(=O)(=O)c1ccc(/N=C2\\C(=O)Nc3ccc(Cl)cc32)cc1", 83.3),
    ("NS(=O)(=O)c1ccccc1/N=C1\\C(=O)Nc2ccccc21", 136),
    ("NS(=O)(=O)c1ccc(/N=C2\\C(=O)Nc3ccc(OC(F)(F)F)cc32)cc1", 53.6),
    ("Cc1ccc2c(c1)/C(=N/c1ccc(S(N)(=O)=O)cc1)C(=O)N2", 128),
    ("Cc1ccc2c(c1)/C(=N/c1ccc(S(N)(=O)=O)cc1)C(=O)N2C", 84.1),
    ("CN1C(=O)/C(=N\\c2ccc(S(N)(=O)=O)cc2)c2cc([N+](=O)[O-])ccc21", 21.7),
    ("CN1C(=O)/C(=N\\c2ccc(S(N)(=O)=O)cc2)c2cc(Br)ccc21", 156),
    ("CN1C(=O)/C(=N\\c2ccc(S(N)(=O)=O)cc2)c2ccccc21", 75.9),
    ("NS(=O)(=O)c1ccccc1/N=C1\\C(=O)Nc2ccc(F)cc21", 91.5),
]
